# assay.target: Estrogen receptor (Homo sapiens) (UniProt P03372)
# Sequence (P03372 whole entry, looked up): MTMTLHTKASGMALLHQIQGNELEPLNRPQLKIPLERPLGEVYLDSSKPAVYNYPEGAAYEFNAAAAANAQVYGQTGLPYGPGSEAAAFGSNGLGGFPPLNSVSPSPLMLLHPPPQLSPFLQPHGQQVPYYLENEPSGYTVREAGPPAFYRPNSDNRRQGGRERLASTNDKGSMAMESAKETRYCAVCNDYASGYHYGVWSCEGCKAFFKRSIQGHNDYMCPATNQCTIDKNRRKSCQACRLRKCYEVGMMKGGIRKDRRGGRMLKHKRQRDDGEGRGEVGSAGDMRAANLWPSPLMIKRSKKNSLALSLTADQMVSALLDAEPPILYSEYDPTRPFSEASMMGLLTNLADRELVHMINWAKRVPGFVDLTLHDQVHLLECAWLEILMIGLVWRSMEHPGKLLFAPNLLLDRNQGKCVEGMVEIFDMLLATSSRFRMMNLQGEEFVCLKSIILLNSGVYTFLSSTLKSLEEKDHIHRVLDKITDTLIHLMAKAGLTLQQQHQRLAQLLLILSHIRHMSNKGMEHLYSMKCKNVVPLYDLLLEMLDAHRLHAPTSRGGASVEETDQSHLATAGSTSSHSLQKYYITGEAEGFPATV
# experiment.summary: qHTS assay to identify small molecule antagonists of the estrogen receptor alpha (ER-alpha) signaling pathway using the BG1 cell line in the presence of 0.1 nM 17-beta-estradiol (AID 1259244); further: nearly all actives have a fitted effect of over 50% in size
# condition.context: VM7Luc4E2 (BG1) ERE-luciferase, antagonist mode, 0.1 nM E2, 22 h; series mostly up to 92.4 µM
Inconclusive results are not listed. Active and inactive are the calls of the source. The call rests on the fitted dose curve; in most records, active means well fitted inhibition curve with a large enough effect in the repeat runs; inconclusive means weak or mixed curves; inactive means no such curve, though single readings can be large or run the other way.

>  <structure.string>
O=c1[nH]c2cc(C(F)(F)F)c(N3CCOCC3)cc2n(CP(=O)(O)O)c1=O

>  <assay.target>
Estrogen receptor (Homo sapiens) (UniProt P03372)

>  <outcome>
inactive

$$$$
>  <structure.string>
CC(C)COC(=O)COc1cc(Cl)c(Cl)cc1Cl

>  <assay.target>
Estrogen receptor (Homo sapiens) (UniProt P03372)

>  <outcome>
inactive

$$$$
>  <structure.string>
O=P(O)(O)Oc1ccccc1

>  <assay.target>
Estrogen receptor (Homo sapiens) (UniProt P03372)

>  <outcome>
inactive

$$$$
>  <structure.string>
O=C(c1ccccc1)C1CCC1

>  <assay.target>
Estrogen receptor (Homo sapiens) (UniProt P03372)

>  <outcome>
inactive

$$$$
